# System: 786-0 renal
# assay: NCI tumour cell line growth inhibition, 48 h
For each of the compounds below, state its TGI.
Answers are plain numbers, in µM.

{"structure.smiles": "COc1ccc2c(c1)C(=O)c1c-2c(N2CCN(C(=O)CCNCCNCCO)CC2)nc2ccccc12", "TGI [µM]": 25.6}

Consider the record given below.
Please report the recorded TGI for CO/N=C(\C)c1cccc(Nc2nc3ccccc3c3occc23)c1 .
26.7

###

# Test system: M14 melanoma
# assay: NCI tumour cell line growth inhibition, 48 h
measurement.type: TGI (µM)
One number for each entry, in µM.

{"structure.smiles": "CC(=O)Oc1ccc(/C=C/C(=O)OCCOC(=O)/C=C/c2ccc(OC(C)=O)c(OC(C)=O)c2)cc1OC(C)=O", "TGI [µM]": 25.3}
{"structure.smiles": "OCc1ccc(N(Cc2ccc(F)cc2)CC2CCC2)cc1Cl", "TGI [µM]": 31.2}
{"structure.smiles": "CCc1ccc2c(c1)C(=O)c1c-2n(CCCN)c(=O)c2cc([N+](=O)[O-])ccc12", "TGI [µM]": 3.08}
{"structure.smiles": "Cc1cccc(/C=N/NC(=S)N(C)CCc2ccccn2)n1", "TGI [µM]": 2.38}
{"structure.smiles": "CS(=O)(=O)OCCN(CCOS(C)(=O)=O)c1ccc(/C=N/Nc2ncnc3nc[nH]c23)cc1", "TGI [µM]": 34.1}
{"structure.smiles": "COc1ccc2c(c1)C(=O)c1c-2c(N2CCN(C(=O)CCNCCNCCO)CC2)nc2ccccc12", "TGI [µM]": 24.1}

Consider the record given below.
Query the reported TGI for M14 melanoma; item: CN1CCN(c2ccc(Nc3ncc4cc5n(c4n3)C3(CCCCC3)CNC5=O)nc2)CC1
11.7

###

For each of the compounds below, state its TGI.
# Tested on: RPMI-8226 leukemia
# assay: NCI tumour cell line growth inhibition, 48 h
One number for each entry, in µM.

{"compound": "CCOC(=O)C(NC(=O)c1cccc(Cl)c1)(N1CCN(c2cc3c(cc2F)c(=O)c(C(=O)O)cn3C2CC2)CC1)C(F)(F)F (centres undefined)", "study.system": "RPMI-8226 leukemia", "units": "µM", "observed.result": 23.6}

Please report the recorded TGI for CC(=O)O[C@H]1C(=O)[C@@]2(C)C(C(OC(=O)c3ccccc3)[C@]3(O)CC(OC(=O)C(O)C(NC(=O)c4ccccc4)c4cccc(Cl)c4)C(C)=C1C3(C)C)[C@]1(OC(C)=O)CO[C@@H]1C[C@@H]2O (some centres undefined) .
9.49

###

# Test system: 786-0 renal
# assay: NCI tumour cell line growth inhibition, 48 h
Classify by measured TGI: Condition met if it is equal to or exceeds 30 µM, Condition not met if it is smaller.

{"compound": "c1cc2c(c(NC3=NCCN3)c1)CCCC2", "study.system": "786-0 renal", "cat": "Condition met"}

Decide: TGI of COC(=O)c1ccccc1C1=C([N+](=O)[O-])C(c2cccc(Br)c2)C(C#N)=C(N)O1 (stereo not given) >= 30 µM?
Condition met

###

For each of the molecules below, state its TGI.
# Tested on: MDA-MB-435
# assay: NCI tumour cell line growth inhibition, 48 h
Give bare numbers, in µM.

Below: 4 molecules and their reported TGI.
{"molecule": "NCCNCCCNC(=O)c1cc(-c2ccccc2)nc2ccccc12", "study.system": "MDA-MB-435", "measurement.type": "TGI", "observed.result": 43.5}
{"molecule": "CCCc1n(Cc2ccc3ccccc3n2)cc[n+]1Cc1ccc2ccccc2n1", "study.system": "MDA-MB-435", "measurement.type": "TGI", "observed.result": 11.9}
{"molecule": "CCOC(=O)Nc1cc2c(c(N)n1)N=C(c1ccc3ccccc3c1)CN2", "study.system": "MDA-MB-435", "measurement.type": "TGI", "observed.result": 0.338}
{"molecule": "O=C1C(Br)=CC2(C=C1Br)CCNc1c(O)c3c4c(c12)=NCCC=4C=N3", "study.system": "MDA-MB-435", "measurement.type": "TGI", "observed.result": 0.245}

Consider the record given below.
Query the reported TGI for MDA-MB-435; item: Cc1c(O)c(Br)c(C)c(O)c1Br (tested in a mixture with another compound)
3.44

###

# System: NCI-H522 lung
# assay: NCI tumour cell line growth inhibition, 48 h
Classify by measured TGI: label 1 if it is equal to or exceeds 20 µM, label 0 if it is smaller.

Previously resolved entries follow.
{"compound": "N#CC1CCCCC1NC1(C#N)CCCCC1 (stereo not given)", "study.system": "NCI-H522 lung", "cat": "label 1"}
{"compound": "O=C(O)c1nc2ccccc2nc1NCc1ccc(F)cc1", "study.system": "NCI-H522 lung", "cat": "label 1"}

Decide: TGI of COC(=O)NC(=O)c1cn(C2CCCCC2)c(=O)[nH]c1=O >= 20 µM?
label 1

Decide: TGI of CSc1nc2nc(C(O)C(O)C(O)CO)cnc2c(=O)[nH]1 (stereo not given) >= 20 µM?
label 1

Decide: TGI of C#CC(O)/C=C/C(O)CCCC(O)CC#CC(O)C#CC(O)CCCC(O)/C=C/CCCCCC(=O)CCCCCCCCCCCCCC(O)C(O)C#CC(=O)O (stereo not given) >= 20 µM?
label 0

Decide: TGI of Oc1ccc(-c2nc3cc(F)ccc3s2)cc1 >= 20 µM?
label 1

Decide: TGI of Cc1ccc(N=NC(C2=NC(=O)CS2)c2nc3ccccc3[nH]2)cc1 (stereo not given) >= 20 µM?
label 1

###

# Test system: SK-OV-3 ovarian
# assay: NCI tumour cell line growth inhibition, 48 h
For each of the compounds below, state its TGI.

{"compound": "CNc1ncnc2c1cnn2CCCCO", "TGI": "> 100 µM"}
{"compound": "C=C1C(=O)C2(C)OC2(C)C1C(=O)O (configuration not stated)", "TGI": "> 100 µM"}
{"compound": "N#Cc1c(N)c(C#N)c2c(c1-c1ccc(Cl)cc1)COc1ccc(F)cc1-2", "TGI": "> 50 µM"}
{"compound": "CC1OC(OCC2OC(Oc3ccc(C4CC(=O)c5c(O)cc(O)cc5O4)cc3O)C(O)C(O)C2O)C(O)C(O)C1O (configuration not stated)", "TGI": "> 100 µM"}
{"compound": "Nc1nc2ncn(CC(O)COC(=O)c3ccccc3)c2c(=O)[nH]1 (configuration not stated)", "TGI": "> 100 µM"}
{"compound": "Cc1cc(-c2cscn2)c(O)c([N+](=O)[O-])c1", "TGI": "96 µM"}
{"compound": "COc1cc2c(cc1O)C1CC(CC3CCCCN31)OC(=O)/C=C\\c1ccc(O)c-2c1 (configuration not stated)", "TGI": "96.7 µM"}
{"compound": "COc1cc(Cn2c(SCC(=O)Nc3ccc(Cl)cc3)nc3ccccc3c2=O)cc(OC)c1OC", "TGI": "16.7 µM"}

Give me TGI for each of these compounds, listed below.
1. CCCc1n(Cc2ccc3ccccc3n2)cc[n+]1Cc1ccc2ccccc2n1
2. COc1ccc2c(c1)/C(=C\c1c(Cl)n(-c3ccccc3)c3ccccc13)C(=O)N2
3. CCCCCCCN(CCCCCCC)CC(O)c1cc2ccccc2c2cc(Br)ccc12 (configuration not stated)
4. COCOc1c(C(OCOC)c2cnc(Sc3ccccc3)n2C)ccc(OC)c1OC (configuration not stated)
5. NNc1ncc2c(n1)-c1ccccc1OC2
6. CCCCCCSc1nc(COC(=O)NC)c(COC(=O)NC)n1C
7. N=C(N)SCc1cccc([N+](=O)[O-])c1
8. CCOC(=O)c1c2ccc(/C=C/c3ccccc3)ccc-2c(C(=O)OCC)c1N

1. 9.68 µM
2. > 100 µM
3. > 100 µM
4. > 100 µM
5. > 100 µM
6. > 100 µM
7. > 81.4 µM
8. > 100 µM

Give me TGI for each of these compounds, listed below.
1. N#CC1C(=O)NC(=O)C1=O (configuration not stated)
2. CC(C)[C@H](C(=O)O[C@@H]1/C=C/C(=O)O[C@@H](C)CCC/C=C/[C@@H]2C[C@H](O)C[C@H]21)N(C)C
3. Nc1ccc(C(=O)Nc2ccccc2N)cc1
4. Oc1cccc(-c2nc(-c3ccccc3)[nH]c2-c2ccncc2)c1

> 100 µM
> 96.7 µM
> 100 µM
> 25 µM

Give me TGI for each of these compounds, listed below.
1. COc1ccc2nc3cc(Cl)ccc3c(Nc3cc(C(C)C)c(O)cc3C)c2c1
2. C=C(CO)[C@H]1Oc2ccc(C(C)=O)cc2[C@@H]1O

6.88 µM
> 100 µM

###

For each of the compounds below, state its TGI.
# Tested on: KM20L2 colon
# assay: NCI tumour cell line growth inhibition, 48 h

{"compound": "CS(=O)(=O)OCCN(CCOS(C)(=O)=O)c1ccc(/C=N/Nc2ncnc3nc[nH]c23)cc1", "study.system": "KM20L2 colon", "TGI": "58 µM"}
{"compound": "Cc1ccc(NC(=O)C(=O)CC(=O)c2ccccc2)cc1C", "study.system": "KM20L2 colon", "TGI": "> 100 µM"}
{"compound": "CC1C(=O)C(C)C(c2ccco2)N(N=O)C1c1ccco1 (stereo unspecified)", "study.system": "KM20L2 colon", "TGI": "> 100 µM"}
{"compound": "COc1cc([N+](=O)[O-])ccc1NC(=O)c1cccc([N+](=O)[O-])c1O", "study.system": "KM20L2 colon", "TGI": "> 100 µM"}
{"compound": "Cc1nc2ccc(N)cc2[nH]c1=O", "study.system": "KM20L2 colon", "TGI": "> 100 µM"}

Consider the record given below.
Please report the recorded TGI for NC(=O)c1cc([N+](=O)[O-])cc([N+](=O)[O-])c1 .
> 100 µM
